Values compiled from patent US20090264289A1.

Tested on: Puccinia recondita
ASSAY EXPLANATION: Activity against Puccinia recondita on wheat (seed treatment)
Type: in vivo
ASSAY SETUP: 250 g a.i./100 kg seeds, inoculated 14 days after sowing, 7 days incubation, control 90
EXPERIMENTAL ENDPOINT: Infected leaf area (%)
Supply the numeric figure in %, leaving out any unit text.

Requested read-out Infected leaf area, target or system Puccinia recondita, entry Cn1cc(C(=O)Nc2ccccc2-c2cc(F)cc(F)c2)c(C(F)(F)F)n1 [Ia.245]
19

Requested read-out Infected leaf area, target or system Puccinia recondita, entry Cn1cc(C(=O)Nc2ccccc2-c2cc(F)c(F)c(F)c2)c(C(F)(F)F)n1 [Ia.85]
11

Requested read-out Infected leaf area, target or system Puccinia recondita, entry Cn1cc(C(=O)Nc2ccccc2-c2cc(Cl)ccc2Cl)c(C(F)(F)F)n1 [Ia.255]
38

Requested read-out Infected leaf area, target or system Puccinia recondita, entry Cn1cc(C(=O)Nc2ccccc2-c2cc(F)c(F)c(F)c2)c(C(F)F)n1 [Ia.90]
0
